All values here come from patent US12545673B2.

# Target of assay: MLK3 (Homo sapiens (Human), UniProt Q16584)
# Sequence (Q16584 whole entry, looked up): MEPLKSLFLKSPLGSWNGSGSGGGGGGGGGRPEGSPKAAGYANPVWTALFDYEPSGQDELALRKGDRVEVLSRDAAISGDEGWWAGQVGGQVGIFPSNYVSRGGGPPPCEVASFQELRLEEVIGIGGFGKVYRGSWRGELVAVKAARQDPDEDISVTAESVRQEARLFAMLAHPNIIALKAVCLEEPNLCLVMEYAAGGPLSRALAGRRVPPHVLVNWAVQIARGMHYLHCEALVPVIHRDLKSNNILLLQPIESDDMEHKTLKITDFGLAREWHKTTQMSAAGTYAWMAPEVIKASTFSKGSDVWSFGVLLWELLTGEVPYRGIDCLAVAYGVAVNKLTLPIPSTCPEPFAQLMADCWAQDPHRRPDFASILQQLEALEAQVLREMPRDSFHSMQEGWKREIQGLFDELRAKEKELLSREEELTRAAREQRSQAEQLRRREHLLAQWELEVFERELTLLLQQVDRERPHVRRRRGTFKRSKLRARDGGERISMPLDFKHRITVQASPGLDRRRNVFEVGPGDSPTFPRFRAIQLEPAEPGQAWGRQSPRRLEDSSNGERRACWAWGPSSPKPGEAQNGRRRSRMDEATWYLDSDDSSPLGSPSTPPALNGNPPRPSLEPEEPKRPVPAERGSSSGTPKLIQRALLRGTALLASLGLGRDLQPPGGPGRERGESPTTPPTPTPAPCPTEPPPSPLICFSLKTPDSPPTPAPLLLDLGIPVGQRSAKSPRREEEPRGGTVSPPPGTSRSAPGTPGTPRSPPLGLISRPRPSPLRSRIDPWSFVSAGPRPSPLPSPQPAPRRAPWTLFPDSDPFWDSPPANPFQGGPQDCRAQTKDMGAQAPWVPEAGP
# Protocol description: Evaluation of inhibitory activity of enzyme units, MLK3 ([γ-33P]-ATP filter assay)
# Assay context: read-out: IC50(nM) MLK3
So basically: is IC50 under 30 nM? Then Y. Not under? Then N.

Does Cc1ccc(NC(=O)CN2CCN(C)CC2)cc1-n1c(C)cc(-c2nc3ncc(Br)c(Nc4cccc(S(N)(=O)=O)c4)c3[nH]2)c1C [Example 89] have IC50 strictly under 30 nM? N

Does CCS(=O)(=O)N1CC[C@H](Nc2c(Br)cnc3[nH]c(-c4cc(C)n(-c5cc(NS(C)(=O)=O)ccc5C)c4C)nc23)C1 [Example 7] have IC50 strictly under 30 nM? Y

Does Cc1ccc(C(=O)NCCN(C)C)cc1-n1c(C)cc(-c2nc3ncc(Br)c(Nc4cccc(S(N)(=O)=O)c4)c3[nH]2)c1C [Example 96] have IC50 strictly under 30 nM? N

----------
# Target of assay: MLK1 (Homo sapiens (Human), UniProt P80192)
# Sequence (P80192 whole entry, looked up): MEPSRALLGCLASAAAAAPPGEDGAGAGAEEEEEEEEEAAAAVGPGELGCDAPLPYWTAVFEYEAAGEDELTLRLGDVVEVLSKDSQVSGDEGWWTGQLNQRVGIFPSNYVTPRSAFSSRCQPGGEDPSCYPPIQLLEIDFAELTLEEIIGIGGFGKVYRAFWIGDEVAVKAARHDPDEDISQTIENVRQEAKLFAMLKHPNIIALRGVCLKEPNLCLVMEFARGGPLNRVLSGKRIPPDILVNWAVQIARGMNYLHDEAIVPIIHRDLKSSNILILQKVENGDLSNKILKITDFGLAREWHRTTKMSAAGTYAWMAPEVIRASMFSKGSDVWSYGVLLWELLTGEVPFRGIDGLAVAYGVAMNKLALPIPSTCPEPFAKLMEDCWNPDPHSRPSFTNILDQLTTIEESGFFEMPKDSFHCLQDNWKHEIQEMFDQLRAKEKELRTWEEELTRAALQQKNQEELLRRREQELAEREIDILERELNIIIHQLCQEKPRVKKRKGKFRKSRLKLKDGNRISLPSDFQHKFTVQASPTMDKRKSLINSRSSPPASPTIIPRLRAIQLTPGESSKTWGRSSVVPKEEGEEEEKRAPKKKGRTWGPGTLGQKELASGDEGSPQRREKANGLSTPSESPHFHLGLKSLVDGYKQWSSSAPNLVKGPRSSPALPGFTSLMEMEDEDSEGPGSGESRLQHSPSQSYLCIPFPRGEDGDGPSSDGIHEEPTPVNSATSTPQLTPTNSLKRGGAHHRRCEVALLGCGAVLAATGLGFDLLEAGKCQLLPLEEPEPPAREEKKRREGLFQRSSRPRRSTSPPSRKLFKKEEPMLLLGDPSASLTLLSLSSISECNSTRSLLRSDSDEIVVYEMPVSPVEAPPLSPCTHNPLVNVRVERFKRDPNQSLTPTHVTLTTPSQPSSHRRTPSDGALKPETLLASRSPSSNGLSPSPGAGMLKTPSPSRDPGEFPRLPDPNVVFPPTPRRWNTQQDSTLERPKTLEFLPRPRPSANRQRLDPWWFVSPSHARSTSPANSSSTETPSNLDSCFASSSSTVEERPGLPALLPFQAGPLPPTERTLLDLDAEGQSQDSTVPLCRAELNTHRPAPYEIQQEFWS
# Protocol description: Evaluation of inhibitory activity of enzyme units, MLK1 ([γ-33P]-ATP filter assay)
# Format: biochemical
So basically: is IC50 under 50 nM? Then Yes. Not under? Then No.

Does `CCS(=O)(=O)N1CC[C@H](Nc2ccnc3[nH]c(-c4cc(C)n(-c5cc(NS(C)(=O)=O)ccc5C)c4C)nc23)C1` have IC50 strictly under 50 nM? No

Does CCS(=O)(=O)N1CC[C@H](Nc2c(Br)cnc3nc(-c4cc(C)n(-c5cccc(NC(=O)CCN(C)C)c5C)c4C)[nH]c23)C1 [Example 79] have IC50 strictly under 50 nM? Yes

----------
# System: acute myeloid leukemia cell line U937
# Protocol description: Cancer cell proliferation inhibitory activity evaluation 2 (CCK-8), U937
# Assay type: cell-based
# Assay context: Homo sapiens, U-937; 10 μM, 72 hours, CCK-8 (Table 3); read-out: Cancer cell proliferation inhibitory activity U937
Catalogue of compounds with associated inhibition at 10 µM

# inhibition at 10 µM lookup, item `CCS(=O)(=O)N1CC[C@H](Nc2c(Br)cnc3[nH]c(-c4cc(C)n(-c5ccc(C(=O)N6CCOCC6)cc5C)c4C)nc23)C1` > 50%

# inhibition at 10 µM lookup, item `Cc1ccc(NC(=O)CN2CCN(C)CC2)cc1-n1c(C)cc(-c2nc3ncc(Br)c(Nc4cccc(S(N)(=O)=O)c4)c3[nH]2)c1C` < 10%

----------
# Target of assay: UniProt:Q16584
# Protocol description: Evaluation of inhibitory activity of enzyme units, MLK3 ([γ-33P]-ATP filter assay)
# Assay context: read-out: IC50(nM) MLK3
Value kind: log10 of IC50 (log10 of the value in nM)
Form field - Quantity: IC50; Unit: nM; Scale: log10

These solved cases illustrate the format of a correct answer.
# log10 of IC50 lookup, item `CCS(=O)(=O)N1CC[C@H](Nc2c(Br)cnc3nc(-c4cc(C)n(-c5cc(C(=O)N6CCN(C)CC6)ccc5C)c4C)[nH]c23)C1` 1.41

# log10 of IC50 lookup, item `CCS(=O)(=O)N1CC[C@H](Nc2c(Br)cnc3[nH]c(-c4cc(C)n(-c5c(Cl)cccc5Cl)c4C)nc23)C1` 0.85

# log10 of IC50 lookup, item `Cc1cc(-c2nc3c(Nc4ccc5c(c4)OCO5)c(Br)cnc3[nH]2)c(C)n1-c1cccc(S(N)(=O)=O)c1` 1.43

# log10 of IC50 lookup, item `CCS(=O)(=O)N1CC[C@H](Nc2c(Cl)cnc3nc(-c4cc(C)n(-c5ccc(OCCN6CCOCC6)cc5)c4C)[nH]c23)C1` 2.51

# log10 of IC50 lookup, item `CCS(=O)(=O)N1CC[C@H](Nc2c(Br)cnc3nc(-c4cc(C)n(-c5ccc(NC(=O)CN6CCN(C)CC6)cc5C)c4C)[nH]c23)C1` 1.20

---
# log10 of IC50 lookup, item `CCS(=O)(=O)N1CC[C@H](Nc2c(Br)cnc3nc(-c4cc(C)n(-c5cccc(C(=O)N6CCOCC6)c5C)c4C)[nH]c23)C1` 1.08

# log10 of IC50 lookup, item `CCS(=O)(=O)N1CC[C@H](Nc2c(Br)cnc3[nH]c(-c4cc(C)n(-c5cccc(N6CCOCC6)c5)c4C)nc23)C1` 0.60

----------
Catalogue of compounds with associated IC50
# Target of assay: MLK1 (Homo sapiens (Human), UniProt P80192)
# Protocol description: Evaluation of inhibitory activity of enzyme units, MLK1 ([γ-33P]-ATP filter assay)
# Type: biochemical
# unit: nM | format: bare number

Record lookup: for MLK1 (Homo sapiens (Human), UniProt P80192), what IC50 belongs to `CCS(=O)(=O)N1CC[C@H](Nc2c(Br)cnc3nc(-c4cc(C)n(-c5cc(C(=O)N6CCOCC6)ccc5C)c4C)[nH]c23)C1` ? 19

Record lookup: for MLK1 (Homo sapiens (Human), UniProt P80192), what IC50 belongs to `CCS(=O)(=O)N1CC[C@H](Nc2c(Br)cnc3[nH]c(-c4cc(C)n(-c5cccc(C(=O)NCCN6CCOCC6)c5)c4C)nc23)C1` ? 22

Record lookup: for MLK1 (Homo sapiens (Human), UniProt P80192), what IC50 belongs to `Cc1ccc(C(=O)N2CCOCC2)cc1-n1c(C)cc(-c2nc3ncc(Br)c(Nc4cccc(S(N)(=O)=O)c4)c3[nH]2)c1C` ? 52

Record lookup: for MLK1 (Homo sapiens (Human), UniProt P80192), what IC50 belongs to `CCS(=O)(=O)N1CC[C@H](Nc2c(Br)cnc3[nH]c(-c4cc(C)n(-c5ccc6c(c5)OCO6)c4C)nc23)C1` ? 50

Record lookup: for MLK1 (Homo sapiens (Human), UniProt P80192), what IC50 belongs to `CCS(=O)(=O)N1CC[C@H](Nc2c(Br)cnc3nc(-c4cc(C)n(-c5cccc(NS(C)(=O)=O)c5)c4C)[nH]c23)C1` ? 52

Record lookup: for MLK1 (Homo sapiens (Human), UniProt P80192), what IC50 belongs to `CCS(=O)(=O)N1CC[C@H](Nc2c(Br)cnc3nc(-c4cc(C)n(-c5cccc(S(=O)(=O)NC)c5)c4C)[nH]c23)C1` ? 75

Record lookup: for MLK1 (Homo sapiens (Human), UniProt P80192), what IC50 belongs to `Cc1ccc(NC(=O)CN2CCOCC2)cc1-n1c(C)cc(-c2nc3ncc(Br)c(Nc4cccc(S(N)(=O)=O)c4)c3[nH]2)c1C` ? 82

Record lookup: for MLK1 (Homo sapiens (Human), UniProt P80192), what IC50 belongs to `Cc1ccc(NC(=O)CN2CCN(C)CC2)cc1-n1c(C)cc(-c2nc3ncc(Br)c(Nc4cccc(S(N)(=O)=O)c4)c3[nH]2)c1C` ? 169

Record lookup: for MLK1 (Homo sapiens (Human), UniProt P80192), what IC50 belongs to `CCS(=O)(=O)N1CC[C@H](Nc2c(Br)cnc3nc(-c4cc(C)n(-c5cc(NC(=O)CN6CCOCC6)ccc5C)c4C)[nH]c23)C1` ? 25

----------
# System: acute myeloid leukemia cell line U937
# Protocol description: Cancer cell proliferation inhibitory activity evaluation 2 (CCK-8), U937
# Format: cell-based
# Assay context: Homo sapiens, U-937; 10 μM, 72 hours, CCK-8 (Table 3); read-out: Cancer cell proliferation inhibitory activity U937
Catalogue of compounds with associated inhibition at 10 µM

Record lookup: for acute myeloid leukemia cell line U937, what inhibition at 10 µM belongs to Cc1cc(NS(C)(=O)=O)ccc1-n1c(C)cc(-c2nc3c(Nc4cccc(S(N)(=O)=O)c4)c(Br)cnc3[nH]2)c1C [Example 32] ? 10 to 50%

---
Record lookup: for acute myeloid leukemia cell line U937, what inhibition at 10 µM belongs to Cc1c(NS(C)(=O)=O)cccc1-n1c(C)cc(-c2nc3c(Nc4cccc(S(N)(=O)=O)c4)c(Br)cnc3[nH]2)c1C [Example 34] ? 10 to 50%

Record lookup: for acute myeloid leukemia cell line U937, what inhibition at 10 µM belongs to CCS(=O)(=O)N1CC[C@H](Nc2c(Br)cnc3nc(-c4cc(C)n(-c5cc(NC(=O)CN(C)C)ccc5C)c4C)[nH]c23)C1 [Example 74] ? > 50%

Record lookup: for acute myeloid leukemia cell line U937, what inhibition at 10 µM belongs to CCS(=O)(=O)N1CC[C@H](Nc2c(Br)cnc3[nH]c(-c4cc(C)n(-c5cc(Cl)ccc5Cl)c4C)nc23)C1 [Example 14] ? 10 to 50%

Record lookup: for acute myeloid leukemia cell line U937, what inhibition at 10 µM belongs to Cc1cc(-c2nc3c(Nc4cccc(S(N)(=O)=O)c4)c(Br)cnc3[nH]2)c(C)n1-c1cc(S(N)(=O)=O)ccc1Cl [Example 36] ? < 10%

Record lookup: for acute myeloid leukemia cell line U937, what inhibition at 10 µM belongs to Cc1cc(-c2nc3c(Nc4cccc(S(N)(=O)=O)c4)c(Br)cnc3[nH]2)c(C)n1-c1ccccc1Cl [Example 31] ? 10 to 50%
